study-target: Metabotropic glutamate receptor 3 (Homo sapiens, UniProt Q14832)
Sequence (Q14832 whole entry): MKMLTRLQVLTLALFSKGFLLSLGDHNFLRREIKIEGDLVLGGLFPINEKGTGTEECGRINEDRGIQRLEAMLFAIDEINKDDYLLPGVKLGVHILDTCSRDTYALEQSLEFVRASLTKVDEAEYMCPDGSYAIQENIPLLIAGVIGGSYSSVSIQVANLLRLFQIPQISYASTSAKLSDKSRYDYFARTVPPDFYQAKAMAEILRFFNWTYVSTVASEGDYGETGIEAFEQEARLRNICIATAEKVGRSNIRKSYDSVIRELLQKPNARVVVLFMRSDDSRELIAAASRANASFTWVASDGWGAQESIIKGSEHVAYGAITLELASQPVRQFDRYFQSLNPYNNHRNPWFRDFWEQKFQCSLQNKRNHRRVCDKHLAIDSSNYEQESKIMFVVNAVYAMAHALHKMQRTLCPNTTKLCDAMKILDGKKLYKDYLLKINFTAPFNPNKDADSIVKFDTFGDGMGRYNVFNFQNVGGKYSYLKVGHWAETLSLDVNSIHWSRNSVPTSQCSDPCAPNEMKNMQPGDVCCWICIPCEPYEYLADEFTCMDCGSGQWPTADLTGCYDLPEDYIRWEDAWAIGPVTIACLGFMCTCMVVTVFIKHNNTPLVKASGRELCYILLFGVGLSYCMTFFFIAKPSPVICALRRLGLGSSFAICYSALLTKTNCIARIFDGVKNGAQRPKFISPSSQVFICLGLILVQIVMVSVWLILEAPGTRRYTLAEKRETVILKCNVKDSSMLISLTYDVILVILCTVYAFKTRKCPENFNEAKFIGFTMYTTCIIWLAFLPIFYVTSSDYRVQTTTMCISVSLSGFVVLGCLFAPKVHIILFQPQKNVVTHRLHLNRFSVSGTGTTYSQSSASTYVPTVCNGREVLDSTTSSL
assay: Displacement of [3H]-341495 binding to membranes expressing recombinant human Metabotropic glutamate receptor 3
pKi: −log10 of the molar value.
property-measured: pKi

molecule="C[C@@H]1C[C@@](N)(C(=O)O)[C@@H]2[C@@H](C(=O)O)[C@@H]21 (stereo in doubt; 13)" study_target="Metabotropic glutamate receptor 3 (Homo sapiens, UniProt Q14832)" property_measured=pKi meas_value=6.24

(1) C[C@@H]1C[C@@](N)(C(=O)O)[C@@H]2[C@@H](C(=O)O)[C@@H]21 (stereo in doubt; (+)-13)
(2) C[C@H]1C[C@@](N)(C(=O)O)[C@@H]2[C@@H](C(=O)O)[C@@H]21
(3) C[C@@H]1C[C@H]2[C@H](C(=O)O)[C@H]2[C@]1(N)C(=O)O
Qu. Let's sort these by pKi, smallest first. Go ahead? // ordering of labels required in reply
Ans. 2, 1, 3
